- EXPERIMENTAL_TARGET: GST-CBP(1081-1197) bromodomain (Homo sapiens (Human))
- METHOD_NOTES: CBP AlphaScreen Assay
- ASSAY_CONTEXT: binding to biotin-H4(1-21) Ac-K5/8/12/16
OBSERVED_PROPERTY: IC50 (nM)

CN1Cc2c(-c3cccc4nc(-c5cnn(C)c5)c(C(F)(F)F)cc34)nc(C3CCOCC3)n2CC1=O	31
CC1C(=O)N(C)Cc2c(-c3c(F)ccc4nc(-c5cnn(C)c5)c(C(F)F)cc34)nc(C3CCOCC3)n21 (single isomer, unassigned) [Example 36a]	2
Cc1ncc(-c2cc3cccc(-c4nc(C5CCOCC5)n5c4CN(C)C(=O)C5C)c3cn2)s1 (single isomer, unassigned) [Example 31b]	2

[I] Cc1nn(C)cc1-c1cc2ccc(F)c(-c3nc(C4CCOCC4)n4c3CN(C)C(=O)C4C)c2cn1 (single isomer, unassigned) [Example 91b]
[II] Cc1nn(C)cc1-c1cc2cccc(-c3nc(C4CCOCC4)n4c3CN(C)C(=O)C4C)c2cn1 (stereo not shown) [Example 88]
[III] CC1C(=O)N(C)Cc2c(-c3cccc4cc(-c5nn[nH]n5)ncc34)nc(C3CC3)n21 (stereo not shown)
[IV] CC1C(=O)N(C)Cc2c(-c3cccc4nc(-c5cnn(C)c5)c(C(F)F)cc34)nc(C3CCN(CCF)CC3)n21 (stereo not shown)
Request: Could you please sort these 4 entries by IC50 from high to low? List labels; respect the requested ordering.
Response: IV, I, III, II
(IV: 153 nM, I: 3 nM, III: 2 nM, II: 1 nM)

###

- EXPERIMENTAL_TARGET: BRD4(49-170) bromodomain (Homo sapiens (Human), UniProt O60885)
- METHOD_NOTES: BRD4 AlphaScreen Assay
- ASSAY_CONTEXT: binding to biotin-H4(1-21) Ac-K5/8/12/16
pIC50: −log10 of the molar value.
OBSERVED_PROPERTY: pIC50

Here's what some known entries look like.
CC1C(=O)N(C)Cc2c(-c3cccc4cc(C5CCOCC5)ncc34)nc(C3CC3)n21 (centres unmarked)	6.73
CC1C(=O)N(C)Cc2c(-c3cccc4cc(-c5nsc(=O)[nH]5)ncc34)nc(C3CC3)n21 (centres unmarked)	5.84
C[C@@H]1C(=O)N(C)Cc2c(-c3cccc4nc(-c5ccn(C)n5)c(C(F)F)cc34)nc(C3CCOCC3)n21 [Example 89a]	7.00

[a] CC1C(=O)N(C)Cc2c(-c3cccc4cc(C5=CCOCC5)ncc34)nc(C3CC3)n21 (centres unmarked)
[b] Cc1nn(C)cc1-c1cc2cccc(-c3nc(C4CC4)n4c3CN(C)C(=O)C4C)c2cn1 (centres unmarked)
Request: When a and b are compared, which has the higher number for pIC50? Which one? Tell me its label.
Response: b
(b: 7.12, a: 6.41)

[a] Cn1cc(-c2cc3cccc(-c4nc(C5CC5)n5c4CN(CCO)C(=O)C5)c3cn2)cn1
[b] C[C@@H]1C(=O)N(C)Cc2c(-c3cccc4cc(-c5cnn(C)c5)ncc34)nc(C3CC3)n21 [Example 111b]
Request: When a and b are compared, which has the higher number for pIC50? Which one? Tell me its label.
Response: b

###

- EXPERIMENTAL_TARGET: GST-CBP(1081-1197) bromodomain (Homo sapiens (Human), UniProt Q92793)
- Sequence (Q92793 1081-1197): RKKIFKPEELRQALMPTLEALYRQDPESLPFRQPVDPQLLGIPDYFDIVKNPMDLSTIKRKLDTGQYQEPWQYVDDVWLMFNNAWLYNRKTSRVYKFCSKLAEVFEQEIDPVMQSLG
- METHOD_NOTES: CBP AlphaScreen Assay
- ASSAY_CONTEXT: binding to biotin-H4(1-21) Ac-K5/8/12/16
pIC50: −log10 of the molar value.
OBSERVED_PROPERTY: pIC50

Here's what some known entries look like.
CC1C(=O)N(C)Cc2c(-c3ccc4sccc4c3)nc(C3CC3)n21 (centres unmarked) [Example 52]	7.03
Cc1ncn(-c2cc3cccc(-c4nc(C5CC5)n5c4CN(C)C(=O)C5C)c3cn2)n1 (centres unmarked) [Example 71]	8.40
CN1Cc2c(-c3cccc4cc(C5CCOCC5)ncc34)nc(C3CCOCC3)n2CC1=O [Example 99]	7.35

[1] COCCN1CCC(c2nc(-c3cccc4nc(-c5cnn(C)c5)c(C(F)F)cc34)c3n2C(C)C(=O)N(C)C3)CC1 (centres unmarked) [Example 82]
[2] CC1C(=O)N(C)Cc2c(-c3cccc4nc(-c5cnn(C)c5)c(C(F)F)cc34)nc(C3CCS(=O)(=O)CC3)n21 (single isomer, unassigned) [Example 29a]
Request: When 1 and 2 are compared, which has the higher number for pIC50? Which one? Tell me its label.
Response: 1
(1: 6.64, 2: 5.19)

###

- EXPERIMENTAL_TARGET: BRD4(49-170) bromodomain (Homo sapiens (Human), UniProt O60885)
- METHOD_NOTES: BRD4 AlphaScreen Assay
- ASSAY_CONTEXT: binding to biotin-H4(1-21) Ac-K5/8/12/16
pIC50: −log10 of the molar value.
OBSERVED_PROPERTY: pIC50

Here's what some known entries look like.
CC1C(=O)N(C)Cc2c(-c3cccc4nc(C5CCOCC5)c(C(F)F)cc34)nc(C3CC3)n21 (stereo not shown)	7.29
Cc1ncc(-c2cc3cccc(-c4nc(C5CC5)n5c4CN(C)C(=O)C5C)c3cn2)s1 (stereo not shown)	6.73
Cc1cn(-c2cc3cccc(-c4nc(C5CCOCC5)n5c4CN(C)C(=O)C5C)c3cn2)cn1 (single isomer, unassigned) [Example 30a]	7.02
CC1C(=O)N(C)Cc2c(-c3cccc4nc(-c5cnn(C)c5)c(C(F)F)cc34)nc(C3CCN(CC(F)(F)F)CC3)n21 (stereo not shown)	5.54

[1] CC1C(=O)N(C)Cc2c(-c3cccc4nc(-c5noc(=O)[nH]5)c(C(F)F)cc34)nc(C3CC3)n21 (single isomer, unassigned) [Example 45a]
[2] C[C@@H]1C(=O)N(C)Cc2c(-c3cccc4nc(-c5cnn(C)c5)c(C(F)F)cc34)nc(C3CC3)n21 [Example 110b]
[3] CN1Cc2c(-c3cccc4nc(-c5cnn(C)c5)c(C(F)F)cc34)nc(C3CCOCC3)n2C(F)C1=O (stereo not shown)
Request: Could you please sort these 3 entries by pIC50 from high to low? List labels; respect the requested ordering.
Response: 1, 2, 3

###

- EXPERIMENTAL_TARGET: BRD4(49-170) bromodomain (Homo sapiens (Human))
- METHOD_NOTES: BRD4 AlphaScreen Assay
- ASSAY_CONTEXT: binding to biotin-H4(1-21) Ac-K5/8/12/16
OBSERVED_PROPERTY: IC50 (nM)

CC1C(=O)N(C)Cc2c(-c3cccc4nc(-c5cn(C)cn5)c(C(F)F)cc34)nc(C3CC3)n21 (stereo not shown)	1530
Cc1ncc(-c2cc3cccc(-c4nc(C5CCOCC5)n5c4CN(C)C(=O)C5C)c3cn2)s1 (single isomer, unassigned) [Example 31b]	106
CNC(=O)N1CC(c2nc(-c3cccc4nc(-c5cnn(C)c5)c(C(F)F)cc34)c3n2C(C)C(=O)N(C)C3)C1 (stereo not shown)	4890

[P] CC1C(=O)N(C)Cc2c(-c3ccc4c(c3)c(-c3cnn(C)c3)nn4C)nc(C3CCOCC3)n21 (stereo not shown)
[Q] CC1C(=O)N(C)Cc2c(-c3cccc4nc(-c5ncco5)c(C(F)F)cc34)nc(C3CC3)n21 (stereo not shown)
Request: Hi, I'm comparing two records. Which one has the lower IC50, P or Q ? Which one? Tell me its label.
Response: Q

[a] CC1C(=O)N(C)Cc2c(-c3cccc4nc(-c5cnn(C)c5)c(C#N)cc34)nc(C3CCOCC3)n21 (single isomer, unassigned) [Example 8b]
[b] CC1C(=O)N(C)Cc2c(-c3cccc4nc(-c5cnn(C)c5)c(C#N)cc34)nc(C3CC3)n21 (single isomer, unassigned) [Example 56b]
Request: Hi, I'm comparing two records. Which one has the lower IC50, a or b ? Which one? Tell me its label.
Response: b

###

- EXPERIMENTAL_TARGET: GST-CBP(1081-1197) bromodomain (Homo sapiens (Human))
- METHOD_NOTES: CBP AlphaScreen Assay
- ASSAY_CONTEXT: binding to biotin-H4(1-21) Ac-K5/8/12/16
OBSERVED_PROPERTY: IC50 (nM)

Cc1nn(C)cc1-c1cc2ccc(F)c(-c3nc(C4CCOCC4)n4c3CN(C)C(=O)C4C)c2cn1 (single isomer, unassigned) [Example 91a]	3610

[a] CC1C(=O)N(C)Cc2c(-c3cccc4cc(-c5cnn(C)c5)ncc34)nc(C3CCOCC3)n21 (stereo not drawn)
[b] Cc1cn(-c2cc3ccc(F)c(-c4nc(C5CCOCC5)n5c4CN(C)C(=O)C5C)c3cn2)cn1 (single isomer, unassigned) [Example 33a]
[c] C[C@@H]1C(=O)N(C)Cc2c(-c3cccc4cc(-c5cnn(C)c5)ncc34)nc(C3CC3)n21 [Example 111b]
[d] Cc1ncc(-c2cc3ccc(C)c(-c4nc(C5CCOCC5)n5c4CN(C)C(=O)C5C)c3cn2)s1 (single isomer, unassigned) [Example 38b]
[e] CC1C(=O)N(C)Cc2c(-c3c(F)ccc4cc(C5CCOCC5)ncc34)nc(C3CCOCC3)n21 (single isomer, unassigned) [Example 34b]
Request: Could you please sort these 5 entries by IC50 from high to low? List labels; respect the requested ordering.
Response: b, d, e, a, c

Data provenance: patent US10899769B2
